target: T1, biotinylated avi-tagged TβRII (UniProt P37173 23-166, a single biotin on the avi tag (BirA)); assay: SPR; biotinylated avi-tagged TβRII captured (50-150 RU) on a neutravidin-coated CM-5 chip, TGM-D3 and its variants injected; 25 mM Hepes, pH 7.4, 150 mM NaCl, 0.05% surfactant P20, 100 µl/min; 1:1 kinetic fit of duplicate or triplicate injection series; settings: both partners purified
T1 construct: also called TβRII (SPR surface)
T1 sequence (P37173 23-166): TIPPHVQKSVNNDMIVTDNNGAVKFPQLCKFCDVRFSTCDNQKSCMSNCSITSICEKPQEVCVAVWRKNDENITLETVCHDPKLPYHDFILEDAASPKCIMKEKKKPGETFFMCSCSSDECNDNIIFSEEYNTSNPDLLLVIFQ
quantity: koff

TGM-D3 K258A (domain or fragment, also called Lys258Ala; not shown: Thioredoxin, N-terminal, cleaved; His6, N-terminal, cleaved) GSGTGCPPLPDDGIVFYEYYGYAGDRHTVGPVVTKDSSGNYPSPTHARRRCRALSQEADPGEFVAICYKSGTTGESHWEYYKNIGACPDP ... 1.2 s⁻¹

Then this binder:
Give the measured koff of TGM-D3 N255A (domain or fragment, also called Asn255Ala; not shown: Thioredoxin, N-terminal, cleaved; His6, N-terminal, cleaved) GSGTGCPPLPDDGIVFYEYYGYAGDRHTVGPVVTKDSSGNYPSPTHARRRCRALSQEADPGEFVAICYKSGTTGESHWEYYKAIGKCPDP .
1.3 s⁻¹
